# target system: Vibrio cholerae sialidase (Vibrio cholerae serotype O1, UniProt P0C6E9)
# Sequence (P0C6E9 25-781): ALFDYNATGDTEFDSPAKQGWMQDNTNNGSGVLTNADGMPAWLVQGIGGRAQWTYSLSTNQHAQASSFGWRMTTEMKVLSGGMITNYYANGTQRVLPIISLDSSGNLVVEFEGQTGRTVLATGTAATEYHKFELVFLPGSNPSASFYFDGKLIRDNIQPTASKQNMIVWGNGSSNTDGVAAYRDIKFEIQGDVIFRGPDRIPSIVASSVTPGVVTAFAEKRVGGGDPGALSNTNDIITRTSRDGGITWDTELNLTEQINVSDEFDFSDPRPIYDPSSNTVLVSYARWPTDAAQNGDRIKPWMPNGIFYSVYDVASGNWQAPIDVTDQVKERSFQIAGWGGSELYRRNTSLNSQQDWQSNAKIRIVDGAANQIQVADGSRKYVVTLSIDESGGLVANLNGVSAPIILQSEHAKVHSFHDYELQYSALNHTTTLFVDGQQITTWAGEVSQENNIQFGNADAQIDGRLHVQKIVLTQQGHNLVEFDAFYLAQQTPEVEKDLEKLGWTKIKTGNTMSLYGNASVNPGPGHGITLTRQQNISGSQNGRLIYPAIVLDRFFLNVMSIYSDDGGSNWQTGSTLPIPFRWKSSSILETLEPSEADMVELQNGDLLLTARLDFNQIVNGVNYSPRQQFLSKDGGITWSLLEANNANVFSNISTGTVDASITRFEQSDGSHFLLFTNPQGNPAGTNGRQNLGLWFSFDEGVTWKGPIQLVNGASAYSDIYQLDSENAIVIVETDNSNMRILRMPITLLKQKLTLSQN
IC50 strictly under 7 µM means Condition met; at 7 µM or over means Condition not met.

Strictly below 7 µM in IC50? CCOc1cc(/C=C/C(O)=C/C(=O)/C=C/c2ccc(O)c(OC)c2)ccc1O Condition met

Strictly below 7 µM in IC50? COc1ccc(/C=C/C(O)=C/C(=O)/C=C/c2ccc(OC)c(OC)c2)cc1O Condition not met

Strictly below 7 µM in IC50? COc1cc(/C=C/C(=O)/C=C(O)/C=C/c2ccc(N)cc2)ccc1O Condition met

Strictly below 7 µM in IC50? COc1ccc(/C=C/C(O)=C/C(=O)/C=C/c2ccc(O)c(OC)c2)cc1O Condition not met

Strictly below 7 µM in IC50? COc1ccc(/C=C/C(=O)/C=C(O)/C=C/c2ccc(O)c(O)c2)cc1O Condition met

Strictly below 7 µM in IC50? COc1cc(C=Cc2cc(C=Cc3ccc(O)c(OC)c3)[nH]n2)ccc1O Condition not met

Strictly below 7 µM in IC50? COc1ccc(C=CC(=O)C=C(O)C=Cc2ccc(OC)c(O)c2)cc1O Condition not met

Strictly below 7 µM in IC50? COC(=O)CCCOc1ccc(C=CC(=O)C=C(O)C=Cc2ccc(O)c(OC)c2)cc1OC Condition not met

Strictly below 7 µM in IC50? O=C(C=Cc1ccc(O)cc1)C=C(O)C=Cc1ccc(O)cc1 Condition not met

The reported measurements were obtained from paper PMC6104608.
